Target: rCRISPA (rCRISP1) (Rattus norvegicus, UniProt P12020)
Construct: Native rCRISPA (rCRISP1) protein, purified with DANA present; from tissue; host or cells: rat epididymis
Sequence (P12020 20-246): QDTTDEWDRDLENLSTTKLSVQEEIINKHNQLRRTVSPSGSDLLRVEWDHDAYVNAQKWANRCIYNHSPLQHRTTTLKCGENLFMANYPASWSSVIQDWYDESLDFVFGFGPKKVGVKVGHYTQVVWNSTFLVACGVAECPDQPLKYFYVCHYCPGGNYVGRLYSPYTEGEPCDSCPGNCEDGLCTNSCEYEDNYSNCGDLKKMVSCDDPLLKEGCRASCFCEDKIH
Experiment: Protease activity screen: cleavage of substrate peptides by native rCRISPA (+DANA protocol), measured by fluorescence
Assay type: biochemical
Settings: 5 μM substrate peptide, 1 μg enzyme, 100 mM NaCl, 25 mM Tris-Cl, pH 7.5; fluorescence at ten minute intervals for 130 minutes; FIG. 13
OBSERVABLE: cleavage of substrate peptide by rCRISPA (rCRISP1) protease activity

Worked cases, answers included:
SUBSTANCE | REPORTED
VIPRSGGS [K11, substrate peptide of the commercial peptide substrate set PrSS-360-75, JPT Peptide Technologies] | Uncleaved
RVLGLKAH [C16, substrate peptide of the commercial peptide substrate set PrSS-360-75, JPT Peptide Technologies] | Cleaved
RQRYGKRS [B17, substrate peptide of the commercial peptide substrate set PrSS-360-75, JPT Peptide Technologies] | Cleaved
AKRAASQI [N12, substrate peptide of the commercial peptide substrate set PrSS-360-75, JPT Peptide Technologies] | Cleaved
PQRFGRNT [B20, substrate peptide of the commercial peptide substrate set PrSS-360-75, JPT Peptide Technologies] | Cleaved
KTPRWGG [L16, substrate peptide of the commercial peptide substrate set PrSS-360-75, JPT Peptide Technologies] | Uncleaved

Check the records and state cleavage of substrate peptide by rCRISPA (rCRISP1) protease activity for RKRRAVLT [N17, substrate peptide of the commercial peptide substrate set PrSS-360-75, JPT Peptide Technologies] Cleaved

###

Molecular target: rCRISPA (rCRISP1) (Rattus norvegicus)
Construct: Native rCRISPA (rCRISP1) protein, purified with DANA present; from tissue; host or cells: rat epididymis
Sequence (P12020 20-246): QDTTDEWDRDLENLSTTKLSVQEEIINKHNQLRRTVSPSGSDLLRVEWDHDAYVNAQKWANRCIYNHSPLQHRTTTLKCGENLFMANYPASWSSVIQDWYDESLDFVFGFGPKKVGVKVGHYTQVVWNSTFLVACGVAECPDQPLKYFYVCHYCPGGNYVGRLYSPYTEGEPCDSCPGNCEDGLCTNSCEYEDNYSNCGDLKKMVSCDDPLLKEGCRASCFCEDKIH
Assay: Protease activity screen: cleavage of substrate peptides by native rCRISPA (+DANA protocol), measured by fluorescence
Format: biochemical
Settings: 5 μM substrate peptide, 1 μg enzyme, 100 mM NaCl, 25 mM Tris-Cl, pH 7.5; fluorescence at ten minute intervals for 130 minutes; FIG. 13
OBSERVABLE: cleavage of substrate peptide by rCRISPA (rCRISP1) protease activity

PRIMARY_SEQUENCE | REPORTED
ALAEAMKK [D06, substrate peptide of the commercial peptide substrate set PrSS-360-75, JPT Peptide Technologies] | Uncleaved
RAKRSVHF [H02, substrate peptide of the commercial peptide substrate set PrSS-360-75, JPT Peptide Technologies] | Uncleaved
RDAQAHPG [C23, substrate peptide of the commercial peptide substrate set PrSS-360-75, JPT Peptide Technologies] | Uncleaved

###

Biological target: rCRISPA (rCRISP1) (Rattus norvegicus, UniProt P12020)
Construct: Native rCRISPA (rCRISP1) protein, purified with DANA present; from tissue; host or cells: rat epididymis
Sequence (P12020 20-246): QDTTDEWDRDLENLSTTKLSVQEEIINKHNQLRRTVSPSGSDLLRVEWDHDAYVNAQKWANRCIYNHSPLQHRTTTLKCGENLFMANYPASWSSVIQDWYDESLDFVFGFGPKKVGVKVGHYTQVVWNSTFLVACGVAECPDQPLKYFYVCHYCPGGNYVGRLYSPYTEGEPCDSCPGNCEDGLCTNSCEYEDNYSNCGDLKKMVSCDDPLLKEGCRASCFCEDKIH
Assay: Protease activity screen: cleavage of substrate peptides by native rCRISPA (+DANA protocol), measured by fluorescence
Type: biochemical
Details: 5 μM substrate peptide, 1 μg enzyme, 100 mM NaCl, 25 mM Tris-Cl, pH 7.5; fluorescence at ten minute intervals for 130 minutes; FIG. 13
OBSERVABLE: cleavage of substrate peptide by rCRISPA (rCRISP1) protease activity

// solved cases for cleavage of substrate peptide by rCRISPA (rCRISP1) protease activity follow
PRIMARY_SEQUENCE | REPORTED
NGLRADPM [H17, substrate peptide of the commercial peptide substrate set PrSS-360-75, JPT Peptide Technologies] | Cleaved
GLQRALEI [M07, substrate peptide of the commercial peptide substrate set PrSS-360-75, JPT Peptide Technologies] | Uncleaved
GPQGLLGA [C01, substrate peptide of the commercial peptide substrate set PrSS-360-75, JPT Peptide Technologies] | Uncleaved
RRLLRAIP [H11, substrate peptide of the commercial peptide substrate set PrSS-360-75, JPT Peptide Technologies] | Cleaved

Now for another entry.
Query cleavage of substrate peptide by rCRISPA (rCRISP1) protease activity for LRNRAQSG [J21, substrate peptide of the commercial peptide substrate set PrSS-360-75, JPT Peptide Technologies] Cleaved
